- experimentalSystem: SARS-COV-2 RBD extracellular domain expressed with a C-terminal mouse IgG2a (SARS-COV-2 RBD-mFc) (SARS-CoV-2)
- methodNotes: SPR, captured mAb, RBD-mFc in solution, 37 C
outcomeMeasure: Kd (nM)
The reply should contain only the number, in nM.

Reference set, count: 2
Noted for mAb10935 (antibody, V domains shown) VH: EVQLVESGGGLVQPGGSLRLSCAASGFTVSSNYMSWVRQAPGKGLEWVSLIYSGGSTYYADSVKGRFTISRHNSKNTLYLQMNSLRSEDTAVYYCARVPLGDYYYGMDVWGQGTTVTVSS VL: DIQMTQSPSSLSASVGDRVTITCQASQDINKYLNWYQQKPGKAPKLLIYDASNLETGVPSRFSGSGSGTDFTFTISSLQPEDIATYYCQQSDNLPLTFGGGTKVEIKR : its Kd reads 0.0869

Noted for mAb10982 (antibody, V domains shown) VH: EVQLVESGGGLVQPGGSLRLSCAASGLTVSSNYMSWVRQAPGKGLEWVSVIYSGGTTYYADSVKGRFTISRHNSKNTLSLQMNSLRAEDTAVYYCARGEGANYYGMDVWGQGTTVTVSS VL: QSVLTQPPSVSGAPGQRVTISCTGSSSNIGTGYDVHWYQQLPGTAPKLLIYGNSNRPSGVPDRFSGSKSGTSASLAITGLQAEDEADYYCQSYDSSLSGYVVFGGGTKLTVLG : its Kd reads 0.21

More entries:
Noted for mAb10954 (antibody, V domains shown) VH: EVQLVESGGGLVQPGGSLRLSCAASGITVSSNYMSWVRQAPGKGLEWVSLIYSGGSTYYADSVKGRFTISRDNSKNTLYLQMNSLRVEDTAVYYCARDHGMAAAGYNYWGQGTLVTVSS VL: DIQMTQSPSSLSASVGDRVTITCQASQDINKYLNWYQQKPGKAPKLLIYDASNLETGVPSRFSGSGSGTDFTFTINSLQPEDFATYFCQQYDNLPPAFGQGTKVEIKR : its Kd reads 0.0369
